system: 3D7; assay: qHTS profiling for inhibitors of Plasmodium falciparum proliferation (AID 504749);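 further: 0% = DMSO vehicle and full inhibition = artemisinin control; nearly all actives have a fitted effect of over 60% in size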; settings: P. falciparum in erythrocytes, SYBR Green DNA, 72 h; series mostly up to 12.8 µM
Inconclusive results are not listed. Active and inactive are the calls of the source. The call rests on the fitted dose curve; in most records, active means well fitted inhibition curve with a large enough effect; inconclusive means small, poorly fitted or top-dose-only effect; inactive means flat fitted curve, though single readings scatter.
quantity measured: outcome

- CN[C@H]1[C@H](O)[C@@H](O[C@@H]2[C@H](O)[C@@H](O[C@H]3OC(CN)=CC[C@H]3N)[C@@H](N)C[C@H]2N)OC[C@@]1(C)O: inactive
- NC[C@@H]1O[C@H](O[C@@H]2[C@H](O[C@@H]3O[C@H](CO)[C@@H](O)[C@@H]3O)[C@@H](O)[C@@H](N)C[C@H]2N)[C@@H](N)[C@H](O)[C@@H]1O: inactive
- COc1ccc(-c2cc(=O)c3c(O)cc(O[C@H]4OC(COC5OC(C)C(O)C(O)[C@H]5O)C(O)C(O)C4O)cc3o2)cc1O (stereo partly specified): inactive
- CO[C@H]1[C@H](O[C@H]2O[C@@H](C)[C@@H](O[C@@H]3C[C@](C)(O)[C@H](OC(=O)CC(C)C)[C@H](C)O3)[C@@H](N(C)C)[C@@H]2O)[C@@H](CC=O)C[C@@H](C)[C@@H](O)/C=C\C=C/C[C@@H](C)OC(=O)C[C@H]1OC(C)=O: inactive
- Cc1ccc2c(c1)c1c3n2CCN[C@H]3CCC1: inactive
- NC(=O)c1cc[n+](CC2=C(C(=O)[O-])N3C(=O)[C@@H](NC(=O)Cc4cccs4)[C@@H]3SC2)cc1: inactive

====

target: Rap guanine nucleotide exchange factor 3 (Homo sapiens); test: Counterscreen qHTS for agonist of cAMP-regulated guanine nucleotide exchange factor 3 (EPAC1) (AID 1645889); conditions: EPAC1 Rap1B-BODIPY-GDP exchange, fluorescence; series mostly up to 154 µM; further: % of control where 0% means no effect; nearly all actives have a fitted effect of over 40% in size
Results filed as inconclusive are left out. Active and inactive are the calls of the source. The call rests on the fitted dose curve; in most records, active means well fitted activation curve with a large enough effect; inconclusive means small, poorly fitted or top-dose-only effect, or another doubt; inactive means no such curve, though single readings can be large or run the other way.
quantity measured: activation

- CCCCN(C(=O)CSCC(=O)Nc1ccc(C)cc1)c1c(N)n(CCCC)c(=O)[nH]c1=O: 6.23% [at 30.8 µM] (inactive)
- O=[N+]([O-])c1cc([N+](=O)[O-])c2nonc2c1Nc1ccc(O)cc1: inactive
- CCC(Oc1ccccc1)C(=O)Nc1cc(Cl)ccc1-n1cncn1 (stereo not drawn): inactive
- C=CCOc1ccc(/C=C2\SC(=S)N(NS(=O)(=O)c3ccc(C)cc3)C2=O)cc1: inactive
- Nc1ncnc2nc(Sc3ccc(Cl)cc3)[nH]c12: inactive
- CC(=O)c1c(C(C)=O)c(C)n(-c2nc(-c3ccccc3)c(C)s2)c1C: inactive
- Cc1[nH]c2ccccc2c1C(C[N+](=O)[O-])c1cccs1 (stereo not drawn): 46.2% [at 30.8 µM] (inactive)
- COc1ccc(/C=C\c2onc(C)c2S(=O)(=O)N2CCC(C(=O)NCCC(C)C)CC2)cc1: 19.1% [at 30.8 µM] (inactive)
- C=CC[C@@H](CC(=O)NCCO)C(=O)N[C@@H](C)COC(=O)[C@H](CC=C)CC(=O)OC(C)(C)C: -7.04% [at 30.8 µM] (inactive)
- CC(C)(C)c1ccc(C(CC(=O)O)NC(=O)CSc2ccccc2)cc1 (stereo not drawn): inactive
- Cc1onc(-c2c(F)cccc2Cl)c1C(=O)Oc1ccccc1: 7.91% [at 30.8 µM] (inactive)
- COc1cccc(-c2ccc(C#N)c(OC(=O)c3ccc(Cl)cc3)n2)c1: 3.51% [at 30.8 µM] (inactive)
- CC(=O)Oc1c(Sc2ccccc2[N+](=O)[O-])c(C)nn1C(C)(C)C: inactive
- CCO/C(C)=N/Oc1cc(OC)cc(OC)c1: inactive
- Cc1ccc2c(c1)-c1c(c(C(=O)N3CCN(c4cc(C)ccc4C)CC3)nn1C)CS2: inactive
- COc1cc2c(cc1OC)-c1cc(NC3CCCCC3)nc(=O)n1CC2: 2.97% [at 30.8 µM] (inactive)
- CCC(=O)Nc1ccc(C(=O)NNC(=O)c2ccc([N+](=O)[O-])cc2)cc1: inactive
- CN(CC(=O)Nc1cccc(F)c1)C(=O)CN1c2cccc3cccc(c23)S1(=O)=O: inactive
- O=C(O)c1cccc(NC(=O)c2cn(-c3ccccc3)nc2-c2cc3ccccc3o2)c1: 16.8% [at 30.8 µM] (inactive)
- CC(OC(=O)c1nn(C)c(=O)c2ccccc12)C(=O)NC1CCCCC1C (stereo not drawn): inactive
- CC(=O)CCc1oc2ccc(C)cc2c1-c1ccc(C)o1: 31.9% [at 30.8 µM] (inactive)
- C=CCc1cc(/C=C/c2nc(O)c([N+](=O)[O-])c(=O)[nH]2)cc(OC)c1O: inactive
- Cc1ccc(S(=O)(=O)Nc2ccccc2N2CCCCC2)cc1: 18.9% [at 30.8 µM] (inactive)
- Cc1cc(Br)c2c(c1)C(O)(N1CCCCC1C)C(=O)N2 (stereo not drawn): 19.4% [at 30.8 µM] (inactive)
- CCOC(=O)c1ccccc1NC(=O)CSc1nccn1Cc1ccco1: inactive
- COC(=O)C1=CN(c2ccc(F)cc2)C(N)=C(C#N)C1c1cccc(OC)c1OC (stereo not drawn): 17% [at 30.8 µM] (inactive)
- CCC(C(=O)OC)n1c(-c2ccccc2)nc2ccccc2c1=O (stereo not drawn): inactive
- CC(=O)Nc1nc(C)c(Oc2ccc(Cl)cc2Cl)c(=O)[nH]1: 7.36% [at 30.8 µM] (inactive)
- Cc1cccc(OCCCSc2nc(-c3ccc(C(C)(C)C)cc3)nc3cc(=O)[nH]n23)c1C: inactive
- COc1ccc(C2=CC(=O)C[C@H](COCc3ccccc3)N(C(=O)OC(C)(C)C)O2)cc1: inactive
- CC1S/C(=N/N=C2CCC(C(C)(C)C)CC2)NC1=O (stereo not drawn): 18.6% [at 30.8 µM] (inactive)
- CN(CCc1ccccn1)C(=O)Nc1ccc(F)cc1: inactive
- COc1ccc(N2CCN(C(=O)c3sc4nc(-c5ccc(F)cc5)cn4c3C)CC2)cc1: inactive
- O=c1[nH]c2cc3c(cc2cc1CN(Cc1ccccc1)Cc1nnnn1Cc1ccco1)OCCO3: inactive
- Cc1ccc(S(=O)(=O)NCCC(=O)N2CC(C)OC(C)C2)cc1 (stereo not drawn): inactive
- Cc1ccc2nc(-c3ccc(Cl)cc3)c(Cc3ccccc3C(F)(F)F)n2c1: -0.77% [at 30.8 µM] (inactive)
- O=C(Nc1sc(-c2ccccc2)cc1C(=O)O)c1ccccc1: inactive
- COC(=O)c1cc2occc2n1Cc1ccc(F)cc1Cl: inactive
- CCC/C(=C1/c2ccccc2C(=O)N1c1ccccc1)c1cnc(OC)nc1: inactive
- N#Cc1c(/N=C/c2ccco2)sc2c1CCC2: 7.28% [at 30.8 µM] (inactive)
- Cc1ccc(-c2csc(N=C(N)N)n2)cc1: 9.63% [at 30.8 µM] (inactive)
- CCC(C(=O)NCc1ccc(OC)c(OC)c1)n1nc(C)c2c(C)n(-c3ccc(C)cc3)nc2c1=O (stereo not drawn): inactive
- O=c1oc(-c2ccccc2)c(-c2ccccc2)c2ccccc12: inactive
